Read-out record for UniProtKB Q07889: pIC50
pIC50: −log10 of the molar value.
measuredAttribute: pIC50

>>> result("Cc1nc(N[C@H](C)c2cc(N)cc(C(F)(F)F)c2)c2cc(N3CC4(CC(O)C4)C3)c3c(c2n1)CCC3")
"7.52 to 9.00"
>>> result("Cc1nc(N[C@H](C)c2cc(N)cc(C(F)(F)F)c2)c2cc(N3CC4(COC4)C3)c3c(c2n1)CC(C)(C)O3")
"7.15 to 7.51"
>>> result("Cc1nc(N[C@H](C)c2cccc(C(F)(F)[C@@H](C)O)c2F)c2cc(N3CC4(COC4)C3)c3c(c2n1)CCC3 (single isomer, unassigned) [Compound 73b]")
"7.52 to 9.00"

* * *

# assayedSystem: hSOS1 mediated nucleotide exchange on hKRASG12C (Homo sapiens)
pIC50: −log10 of the molar value.
measuredAttribute: pIC50

>>> result("COCC1(O)CCN(c2cc3c(N[C@H](C)c4cccc(C(F)(F)C(C)(C)O)c4F)nc(C)nc3c3c2CCC3)CC1 [Compound 63]")
"7.52 to 9.00"
>>> result("Cc1nc(N[C@H](C)c2cccc(C(F)(F)C(C)(C)O)c2F)c2cc(N3CCC(O)(CO)CC3)c3c(c2n1)CCC3 [Compound 85]")
"7.52 to 9.00"
>>> result("Cc1nc(N[C@H](C)c2cc(N)cc(C(F)F)c2)c2cc(N3CCOCC3)c3c(c2n1)CC(C)(C)O3 [Compound 115]")
"7.15 to 7.51"
>>> result("Cc1nc(N[C@H](C)c2cc(N)cc(C(F)(F)F)c2)c2cc(N3CCC(CO)CC3)c3c(c2n1)CCC3 [Compound 49]")
"7.52 to 9.00"
>>> result("Cc1nc(N[C@H](C)c2cc(N)cc(C(F)(F)F)c2)c2cc(N3CC[C@](C)(O)C3)c3c(c2n1)CCC3 (single isomer, unassigned) [Compound 55b]")
"6.89 to 7.15"
>>> result("COCC1CCN(c2cc3c(N[C@H](C)c4cccc(C(F)(F)C(C)(C)O)c4F)nc(C)nc3c3c2CCC3)CC1 [Compound 57]")
"7.52 to 9.00"
>>> result("COCC1CCN(c2cc3c(N[C@H](C)c4cc(N)cc(C(F)(F)F)c4)nc(C)nc3c3c2CCC3)CC1 [Compound 54]")
"7.15 to 7.51"

* * *

# assayedSystem: hSOS1 mediated nucleotide exchange on hKRASG12C (Homo sapiens)
# assayProtocol: biochemical
Parameter: IC50. Scope: all listed entries.
measuredAttribute: IC50

>>> result("Cc1nc(N[C@H](C)c2cccc(C(F)(F)C(C)(C)O)c2F)c2cc(N3CCC(CO)CC3)c3c(c2n1)CCC3")
"1 to 30 nM"
>>> result("Cc1nc(N[C@H](C)c2cccc(C(F)(F)C(C)(C)O)c2F)c2cc(N3CCC(C)(CO)CC3)c3c(c2n1)CCC3")
"1 to 30 nM"
>>> result("COCC1(O)CCN(c2cc3c(N[C@H](C)c4cccc(C(F)(F)[C@@H](C)O)c4F)nc(C)nc3c3c2CCC3)CC1 (single isomer, unassigned) [Compound 72b]")
"1 to 30 nM"
>>> result("COCC(F)(F)c1cccc([C@@H](C)Nc2nc(C)nc3c4c(c(N5CC6(COC6)C5)cc23)CCC4)c1F")
"31 to 70 nM"
>>> result("Cc1nc(N[C@H](C)c2cc(N)cc(C(F)(F)F)c2)c2cc(N3CC4(COC4)C3)c3c(c2n1)CCC3")
"1 to 30 nM"
>>> result("Cc1nc(N[C@H](C)c2cccc(C(F)(F)C(C)(C)O)c2F)c2cc(N3C[C@@H]4[C@@H](CO)[C@@H]4C3)c3c(c2n1)CCC3")
"1 to 30 nM"

* * *

# pIC50 per record follows
# assayedSystem: UniProt:Q07889
# Sequence (Q07889 564-1049): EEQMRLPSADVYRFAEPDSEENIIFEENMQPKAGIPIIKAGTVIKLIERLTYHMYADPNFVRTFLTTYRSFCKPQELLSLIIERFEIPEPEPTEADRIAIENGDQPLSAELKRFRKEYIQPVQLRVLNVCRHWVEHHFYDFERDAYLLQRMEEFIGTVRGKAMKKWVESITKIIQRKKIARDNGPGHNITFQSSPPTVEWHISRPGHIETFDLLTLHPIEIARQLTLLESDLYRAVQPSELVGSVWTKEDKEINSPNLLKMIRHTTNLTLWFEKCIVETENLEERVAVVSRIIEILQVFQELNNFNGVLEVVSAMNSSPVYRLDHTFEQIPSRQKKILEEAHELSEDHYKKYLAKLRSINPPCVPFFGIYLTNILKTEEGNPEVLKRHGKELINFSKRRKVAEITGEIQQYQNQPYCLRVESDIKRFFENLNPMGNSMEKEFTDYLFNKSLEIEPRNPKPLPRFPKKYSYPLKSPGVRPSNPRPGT
pIC50: −log10 of the molar value.
measuredAttribute: pIC50

>>> result("Cc1nc(N[C@H](C)c2cc(N)cc(C(F)(F)F)c2)c2cc(NC3COC3)c3c(c2n1)CCC3")
"8.00 to 9.00"
>>> result("Cc1nc(N[C@H](C)c2cccc(C(F)(F)[C@](C)(O)CO)c2F)c2cc(N3CCOCC3)c3c(c2n1)CCC3 (racemic) [Compound 82a]")
"8.00 to 9.00"
>>> result("COCC1CCN(c2cc3c(N[C@H](C)c4cccc(C(F)(F)C(C)(C)O)c4F)nc(C)nc3c3c2CCC3)CC1")
"8.00 to 9.00"
>>> result("COC[C@H]1CN(c2cc3c(N[C@H](C)c4cc(N)cc(C(F)(F)F)c4)nc(C)nc3c3c2CCC3)CCO1")
"8.00 to 9.00"
>>> result("Cc1nc(N[C@H](C)c2cc(N)cc(C(F)(F)F)c2)c2cc(N3CCC(C(C)(C)O)CC3)c3c(c2n1)CCC3")
"8.00 to 9.00"
>>> result("COCC1(O)CCN(c2cc3c(N[C@H](C)c4cccc(C(F)(F)C(C)(C)O)c4F)nc(C)nc3c3c2CCC3)CC1")
"8.00 to 9.00"
>>> result("COCC1CCN(c2cc3c(N[C@H](C)c4cc(N)cc(C(F)(F)F)c4)nc(C)nc3c3c2CCC3)CC1")
"7.70 to 7.96"
>>> result("Cc1nc(N[C@H](C)c2cc(N)cc(C(F)(F)F)c2)c2cc(O[C@H]3CCOC3)c3oc(C)cc3c2n1")
"7.70 to 7.96"
>>> result("COc1cc2c(N[C@H](C)c3cc(N)cc(C(F)(F)F)c3)nc(C)nc2c2c1CCC2")
"8.00 to 9.00"
>>> result("Cc1nc(NC(C)c2cc(N)cc(C(F)F)c2)c2cc(N3CCOCC3)c3c(c2n1)CCC3 (single isomer, unassigned)")
"8.00 to 9.00"
>>> result("Cc1nc(N[C@H](C)c2cc(N)cc(C(F)(F)F)c2)c2cc(N3CC4(CC(O)C4)C3)c3c(c2n1)CCC3")
"8.00 to 9.00"
>>> result("Cc1nc(N[C@H](C)c2cccc(C(F)(F)C(C)(C)O)c2F)c2cc(N3CC[C@@](C)(O)C3)c3c(c2n1)CCC3 (single isomer, unassigned) [Compound 61a]")
"8.00 to 9.00"
>>> result("Cc1nc(N[C@H](C)c2cccc(C(F)(F)C(C)(C)O)c2F)c2cc(N3CCC(O)(CO)CC3)c3c(c2n1)CCC3")
"8.00 to 9.00"
>>> result("Cc1nc(N[C@H](C)c2cc(N)cc(C(F)(F)F)c2)c2cc(N3CC4(COC4)C3)c3c(c2n1)CCC3")
"8.00 to 9.00"
>>> result("COCC1(O)CCN(c2cc3c(N[C@H](C)c4cccc(C(F)(F)C(C)O)c4F)nc(C)nc3c3c2CCC3)CC1 (single isomer, unassigned) [Compound 72a]")
"8.00 to 9.00"
>>> result("Cc1nc(N[C@H](C)c2cc(N)cc(C(F)(F)F)c2)c2cc(N3CCOCC3)c3c(c2n1)CC(C)O3 (single isomer, unassigned) [Compound 117b]")
"7.70 to 7.96"
>>> result("Cc1nc(N[C@H](C)c2cc(N)cc(C(F)(F)F)c2)c2cc(N3CC4(COC4)C3)c3c(c2n1)CC(C)(C)O3")
"8.00 to 9.00"
>>> result("Cc1nc(N[C@H](C)c2cccc(C(F)(F)C(C)(C)O)c2F)c2cc(C3(O)CCOCC3)c3c(c2n1)CCC3")
"7.70 to 7.96"
>>> result("Cc1nc(N[C@H](C)c2cc(N)cc(C(F)(F)F)c2)c2cc(N3C[C@@H](C)O[C@@H](C)C3)c3c(c2n1)CCC3")
"7.70 to 7.96"
>>> result("COCC(F)(F)c1cccc([C@@H](C)Nc2nc(C)nc3c4c(c(N5CC6(COC6)C5)cc23)CCC4)c1F")
"8.00 to 9.00"
>>> result("COCC1(O)CCN(c2cc3c(N[C@H](C)c4cc(N)cc(C(F)(F)F)c4)nc(C)nc3c3c2CCC3)CC1")
"8.00 to 9.00"
>>> result("Cc1nc(N[C@H](C)c2cc(N)cc(C(F)(F)F)c2)c2cc(N3CCNC(=O)C3)c3c(c2n1)CCC3")
"8.00 to 9.00"
>>> result("COC1CCN(c2cc3c(N[C@H](C)c4cc(N)cc(C(F)(F)F)c4)nc(C)nc3c3c2CCC3)CC1")
"7.70 to 7.96"
>>> result("Cc1nc(N[C@H](C)c2cc(N)cc(C(F)(F)F)c2)c2cc(N3CCN(C)CC3)c3c(c2n1)CCC3")
"8.00 to 9.00"
>>> result("COCC1(O)CCN(c2cc3c(N[C@H](C)c4cccc(C(F)(F)CCO)c4F)nc(C)nc3c3c2CCC3)CC1")
"8.00 to 9.00"
>>> result("Cc1nc(N[C@H](C)c2cccc(C(F)(F)C(C)(C)O)c2F)c2cc(N3CCC(CO)CC3)c3c(c2n1)CCC3")
"8.00 to 9.00"
>>> result("Cc1nc(N[C@H](C)c2cc(N)cc(C(F)(F)F)c2)c2cc(NC3CCOCC3)c3c(c2n1)CCC3")
"7.70 to 7.96"
